# EC50 listing for each entry below
# tested_system: human GR (Homo sapiens, UniProt P04150)
# Construct: naturally expresses the human GR; endogenous in cells
# method_summary: Transrepression Assay (GITAR), TNFα-β-lactamase reporter in U937 cells
# Format: cell-based
# assay_conditions: inflection point (IP), TNFα promoter β-lactamase reporter, PMA/LPS
// units = nM; emit number, no label

{"compound": "C[C@]12Cc3cnn(-c4ccccc4)c3C=C1CC[C@@]2(CO)CC(O)c1cccnc1 (single isomer, unassigned) [Example 29b]", "attribute_measured": "EC50", "numeric_result": 103}

Prompt: Name the reported EC50 value associated with the compound C[C@]12Cc3cnn(-c4ccc(F)cc4)c3C=C1CC[C@@]2(CO)CC(O)c1cccnc1 (single isomer, unassigned) [Example 15b]
Response: 98.5

Prompt: Also check C[C@]12Cc3cnn(-c4ccc(F)cc4)c3C=C1CC[C@@]2(CO)CC(O)c1ccccc1 (single isomer, unassigned) [Example 13b]
Response: 18

Prompt: Also check C[C@]12Cc3cnn(-c4ccc(F)cc4)c3C=C1CC[C@@]2(CO)CC(O)c1ccccc1Cl (single isomer, unassigned) [Example 3a]
Response: 37.6

Prompt: Also check COc1ccc(C(O)C[C@]2(CO)CCC3=Cc4c(cnn4-c4ccc(F)cc4)C[C@@]32C)nc1 (single isomer, unassigned) [Example 24b]
Response: 376

Prompt: Also check C[C@]12Cc3cnn(-c4ccc(F)cc4)c3C=C1CC[C@@]2(CO)CC(O)c1ccccn1 (single isomer, unassigned) [Example 1b]
Response: 24

Prompt: Also check C[C@]12Cc3cnn(-c4ccc(F)cc4)c3C=C1CC[C@@]2(CO)CC(O)C(F)(F)F (single isomer, unassigned) [Example 28a]
Response: 54.3

Prompt: Also check C[C@]12Cc3cnn(-c4ccc(F)cc4)c3C=C1CC[C@@]2(CO)CC(O)c1ccccn1 (single isomer, unassigned) [Example 1a]
Response: 5.6

Prompt: Also check Cc1ccc(C(O)C[C@]2(CO)CCC3=Cc4c(cnn4-c4ccc(F)cc4)C[C@@]32C)cc1 (single isomer, unassigned) [Example 2a]
Response: 137

====

# Emax listing for each entry below
# tested_system: human GR (Homo sapiens)
# Construct: naturally expresses the human GR; endogenous in cells
# Sequence (P04150 1-777): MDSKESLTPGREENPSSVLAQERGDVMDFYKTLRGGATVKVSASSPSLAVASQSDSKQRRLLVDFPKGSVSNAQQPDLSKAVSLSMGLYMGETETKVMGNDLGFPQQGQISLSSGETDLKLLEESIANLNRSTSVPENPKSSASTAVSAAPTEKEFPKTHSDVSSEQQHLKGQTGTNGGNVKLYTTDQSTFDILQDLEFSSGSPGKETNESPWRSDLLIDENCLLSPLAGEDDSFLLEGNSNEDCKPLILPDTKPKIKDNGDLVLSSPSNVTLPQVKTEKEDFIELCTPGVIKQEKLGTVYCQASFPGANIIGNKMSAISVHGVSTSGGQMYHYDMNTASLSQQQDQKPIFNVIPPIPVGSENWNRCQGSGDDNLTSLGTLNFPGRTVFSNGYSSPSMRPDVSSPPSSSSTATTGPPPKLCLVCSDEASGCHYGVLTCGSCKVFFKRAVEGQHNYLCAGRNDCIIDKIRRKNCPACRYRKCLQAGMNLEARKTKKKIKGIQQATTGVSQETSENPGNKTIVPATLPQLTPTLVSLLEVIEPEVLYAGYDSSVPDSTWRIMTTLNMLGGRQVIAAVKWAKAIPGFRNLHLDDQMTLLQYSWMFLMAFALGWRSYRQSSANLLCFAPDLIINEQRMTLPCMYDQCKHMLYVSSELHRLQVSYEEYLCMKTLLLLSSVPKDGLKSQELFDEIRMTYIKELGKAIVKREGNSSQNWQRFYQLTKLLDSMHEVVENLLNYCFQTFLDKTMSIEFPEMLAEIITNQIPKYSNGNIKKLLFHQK
# method_summary: Trans-Activation Modulation of Glucocorticoid Receptor Assay (GRAMMER), MMTV-LUC reporter in A549 cells
# Type: cell-based
# assay_conditions: A549, Emax relative to the activity obtained with 300 nM dexamethasone, read-out: Transactivation A549 Cells GRAMMER Emax (%)
// units = %; emit number, no label

Example entries and their recorded answers appear below.
{"compound": "C[C@]12Cc3cnn(-c4ccc(F)cc4)c3C=C1CC[C@@]2(CO)CC(O)c1cccc(C(F)(F)F)c1 (single isomer, unassigned) [Example 7a]", "unit_abbrev": "%", "Emax": 60.2}
{"compound": "C[C@]12Cc3cnn(-c4cccc(F)c4)c3C=C1CC[C@@]2(CO)CC(O)c1ccccn1 (single isomer, unassigned) [Example 19a]", "unit_abbrev": "%", "Emax": 43.7}
{"compound": "COc1ccc(C(O)C[C@]2(CO)CCC3=Cc4c(cnn4-c4ccc(F)cc4)C[C@@]32C)nc1 (single isomer, unassigned) [Example 24a]", "unit_abbrev": "%", "Emax": 7.6}
{"compound": "C[C@]12Cc3cnn(-c4ccc(F)cc4)c3C=C1CC[C@@]2(CO)CC(O)c1ccccc1Cl (single isomer, unassigned) [Example 3a]", "unit_abbrev": "%", "Emax": 127}
{"compound": "C[C@]12Cc3cnn(-c4ccc(F)cc4)c3C=C1CC[C@@]2(CO)CC(O)c1cc(F)cc(F)c1 (stereo partly drawn) [Example 9]", "unit_abbrev": "%", "Emax": 80.3}

Prompt: Name the reported Emax value associated with the compound C[C@]12Cc3cnn(-c4ccc(F)cc4)c3C=C1CC[C@@]2(CO)CC(O)C(F)(F)F (single isomer, unassigned) [Example 28a]
Response: 60.4
